TEST DETAILS: Pharmacokinetics and distribution in brain tissue in mice
Format: in vivo, ICR mice
EXPERIMENTAL CONDITIONS: male, ICR, mouse; mice, intravenous injection 2 mg/kg, plasma; read-out: MRT0-∞
Counter-ions that a name gives are not always drawn.
PROPERTY MEASURED: MRT inf

# MOLECULE, MRT inf
records = [
    ("C#CCN(Cc1ccc(F)cc1)c1ccc(NC(=O)OC)c(C)c1 [K41•HCl]", "27 min"),
]

Continue with the next molecule.
Input line: What does the record list as MRT inf for C#CCN(Cc1ccc(F)cc1)c1cc(C)c(NC(=O)OC)c(C)c1.Cl [K43•HCl] ?
Output line: 25.8 min

* * *

TEST DETAILS: Pharmacokinetics and distribution in brain tissue in mice
Assay type: in vivo, ICR mice
EXPERIMENTAL CONDITIONS: male, ICR, mouse, po; mice, intragastric perfusion 5 mg/kg, plasma; read-out: MRT0-∞
Counter-ions that a name gives are not always drawn.
PROPERTY MEASURED: MRT inf (min)
Give bare numbers, in min.

# COMPOUND, PROPERTY MEASURED, MEASURED RESULT
data = [
    ("C#CCN(Cc1ccc(F)cc1)c1ccc(NC(=O)OC)c(C)c1 [K41•HCl]", "MRT inf", 62.4),
]

Continue with the next compound.
Input line: What does the record list as MRT inf for C#CCN(Cc1ccc(F)cc1)c1cc(C)c(NC(=O)OC)c(C)c1.Cl [K43•HCl] ?
Output line: 56.4

* * *

TEST DETAILS: Pharmacokinetics and distribution in brain tissue in mice
Assay type: in vivo, ICR mice
EXPERIMENTAL CONDITIONS: male, ICR, mouse; mice, intravenous injection 2 mg/kg, plasma
Structures can show the parent of a compound that is named as a salt.
PROPERTY MEASURED: AUC(0-inf) (ng·h/mL)
One number for each entry, in ng·h/mL.

# MOLECULE, DISPLAY UNIT, MEASURED RESULT
data = [
    ("C#CCN(Cc1ccc(F)cc1)c1ccc(NC(=O)OC)c(C)c1 [K41•HCl]", "ng·h/mL", 294),
]

Continue with the next molecule.
Input line: What does the record list as AUC(0-inf) for C#CCN(Cc1ccc(F)cc1)c1cc(C)c(NC(=O)OC)c(C)c1.Cl [K43•HCl] ?
Output line: 334

* * *

TEST DETAILS: Pharmacokinetics and distribution in brain tissue in rats
Type: in vivo, Sprague Dawley rats
EXPERIMENTAL CONDITIONS: Sprague-Dawley, rat, plasma, po, 5 mg/kg, SD rats, PO 5.00 mg/kg, plasma, mean; read-out: tmax
PROPERTY MEASURED: Tmax (h)
One number for each entry, in h.

Input line: What does the record list as Tmax for `C#CCN(Cc1ccc(F)cc1)c1cc(C)c(NC(=O)OC)c(C)c1` ?
Output line: 2.33

* * *

Provide the reported TD50 at 30 min of each item.
TEST DETAILS: Rotarod experiment, motor coordination ability (acute neurotoxicity)
Format: in vivo, KM mice
EXPERIMENTAL CONDITIONS: both sexes, KM, mouse, in vivo; mice, oral perfusion, Rotarod 30 mins after administration; read-out: TD50 (50% acute neurotoxicity dose)
Structures can show the parent of a compound that is named as a salt.
Answers are plain numbers, in mg/kg.

Check out these entries, answers already filled in.
# COMPOUND, MEASURED RESULT
rows = [
    ("C#CCN(Cc1ccc(F)cc1)c1cc(C)c(NC(=O)OC)c(C)c1.Cl [K43•HCl]", 152),
    ("CCOC(=O)Nc1ccc(NCc2ccc(F)cc2)cc1N [RTG, retigabine, reference compound]", 74.2),
]

Continue with the next compound.
Input line: What does the record list as TD50 at 30 min for C#CCN(Cc1ccc(F)cc1)c1ccc(NC(=O)OC)c(C)c1 [K41•HCl] ?
Output line: 103
